The reported numbers originate from patent US20090208447A1.

target: HLA-A*0201 loaded with the Carcinoembryonic antigen (CEA)-derived … peptide (biotinylated on the C-terminal biotinylation tag); assay: SPR (Biacore), Example 4
pKd: −log10 of the molar value.
metricName: pKd

Value sought for every listed binder: pKd.
1. SEQ ID NO 25 (receptor) MGHLPKPTLWAEPGSVITQGSPVTLRCQGGQETQEYRLYREKKTAPWITRIPQELVKKGQFPIPSITWEHAGRYRCYYGTQTAGRSESSDPLELVVTGVYIKPTLSAQPSPVVNSGGNVTLQCDSQVAFDGFILCKEGEDEHPQCLNSQPHARGSSRAIFSVGPVSPSRRWWYRCYAYDSNSPYEWSLPSDLLELLVL
2. SEQ ID NO 48 (receptor) MGHLPKPTLWAEPGSVITQGSPVTLRCQGGQETQEYRLYREKKTAPWITRIPQELVKKGQFPIPSITWEHAGRYRCQGVSQTAGRSESSDPLELVVTGVYIKPTLSAQPSPVVNSGGNVTLQCDSQVAFDGFILCKEGEDEHPQCLNSQPHARGSSRAIFSVGPVSPSRRWWYRCYAYDSNSPYEWSLPSDLLELLVL
3. SEQ ID NO 23 (receptor) MGHLPKPTLQAEPGSVITQGSPVTLRCQGGQETQEYRLYREKKTAPWITRIPQELVKKGQFPIPSITWEHAGRYRCVIQRGTAGRSESSDPLELVVTGVYIKPTLSAQPSPVVNSGGNVTLQCDSQVAFDGFILCKEGEDEHPQCLNSQPHARGSSRAIFSVGPVSPSRRWWYRCYAYDSNSPYEWSLPSDLLELLVL

## Output
1: ≥ 6.00; 2: ≥ 6.00; 3: ≥ 6.00
